Recorded values, source ChEMBL document CHEMBL4689842.

System: Fibroblast
experimental.protocol: Incucyte cell viability with human fibroblast; also: filed as whole numbers so only -1 and 0 and 1 occur
Type: toxicity, cell-based
condition.description: 18 h, 10 µM, compound concentration 10 uM, replicate number 1, timepoint 18 hours
Reported Growth Rate values for the following compounds.
measured.attribute: Growth Rate

[
  {
    "compound": "Nc1ccc(C(=O)Nc2cccc(-c3nc(N4CCOCC4)c4oc5ncccc5c4n3)c2)cn1",
    "system.name": "Fibroblast",
    "readout.number": 0
  },
  {
    "compound": "CCCc1cc(C)[nH]c(=O)c1CNC(=O)c1cc(-c2ccnc(N3CCN(C)CC3)c2)cc2c1cnn2C(C)C",
    "system.name": "Fibroblast",
    "readout.number": 1
  },
  {
    "compound": "CC(=O)N1CCC(c2ccc(C(=O)NC3=NCCN3)cc2C(F)(F)F)CC1",
    "system.name": "Fibroblast",
    "readout.number": 1
  },
  {
    "compound": "Cc1cc(C(=O)N2Cc3cnn(C)c3Nc3ccccc32)ccc1CNC(=O)N1CCC[C@H]1C(=S)N1CCCN(C)CC1",
    "system.name": "Fibroblast",
    "readout.number": 0
  },
  {
    "compound": "N#Cc1ccc(Nc2ccc3[nH]c(=O)[nH]c3c2)c(Cl)c1 [TP-021n]",
    "system.name": "Fibroblast",
    "readout.number": 0
  }
]

* * *

System: Fibroblast
experimental.protocol: Multiplex assay against human fibroblast
Type: toxicity, cell-based
condition.description: 48 h, 1 µM, compound concentration 1 uM, replicate 2
Reported Population Fragmented Nuclei (%) values for the following compounds.

[
  {
    "compound": "Cc1nc(Cc2cccc(C(F)(F)F)c2)sc1-c1ccc(C(N)=O)nc1 [TP-024n]",
    "system.name": "Fibroblast",
    "Population Fragmented Nuclei (%)": 16
  },
  {
    "compound": "CNc1oc(-c2cccc3ccccc23)nc1C#N",
    "system.name": "Fibroblast",
    "Population Fragmented Nuclei (%)": 75
  },
  {
    "compound": "CCc1cc2c(cc1CC)CC(NC[C@H](O)c1ccc(O)c3[nH]c(=O)ccc13)C2 [INDACATEROL]",
    "system.name": "Fibroblast",
    "Population Fragmented Nuclei (%)": 37
  },
  {
    "compound": "Nc1nc2c(c(N3CCNCC3)n1)CCC1=C2[C@@H]2CCCC[C@@H]2O1",
    "system.name": "Fibroblast",
    "Population Fragmented Nuclei (%)": 34
  },
  {
    "compound": "Cc1cc2c(cc1N1C(=O)c3cccc4c(CCCO)ccc(c34)C1=O)n(C)c(=O)n2C",
    "system.name": "Fibroblast",
    "Population Fragmented Nuclei (%)": 28
  },
  {
    "compound": "COc1cc2c(NC3CCN(C(C)C)CC3)nc(N3CCC(F)(F)CC3)nc2cc1OCCCN1CCCC1",
    "system.name": "Fibroblast",
    "Population Fragmented Nuclei (%)": 47
  },
  {
    "compound": "O=C(O)c1ccc2cc(-c3ccc(O)c(C45CC6CC(CC(C6)C4)C5)c3)ccc2c1 [O-DEMETHYLATED ADAPALENE]",
    "system.name": "Fibroblast",
    "Population Fragmented Nuclei (%)": 18
  },
  {
    "compound": "CC(C)N1CCC(C)(C)c2cc(C#Cc3ccc(C(=O)O)cc3)ccc21",
    "system.name": "Fibroblast",
    "Population Fragmented Nuclei (%)": 57
  },
  {
    "compound": "CCn1c(-c2nonc2N)nc2cnc(Oc3cccc(NC(=O)c4ccc(OCCN5CCOCC5)cc4)c3)cc21 [GSK-269962A]",
    "system.name": "Fibroblast",
    "Population Fragmented Nuclei (%)": 27
  },
  {
    "compound": "Cl.Cl.Nc1ncnc2c1c(-c1cccc(OCc3ccccc3)c1)cn2[C@H]1C[C@@H](CN2CCC2)C1",
    "system.name": "Fibroblast",
    "Population Fragmented Nuclei (%)": 32
  },
  {
    "compound": "Nc1ccc(C(=O)Nc2cccc(-c3nc(N4CCOCC4)c4oc5ncccc5c4n3)c2)cn1",
    "system.name": "Fibroblast",
    "Population Fragmented Nuclei (%)": 58
  }
]
